Answer each item with its documented IC50 values in inhibition of IL-4 (SEAP, HEK-Blue IL-4/IL-13 cells).
Target: T1, human IL-4R on cells (HEK-Blue IL-4/IL-13 cells, TF-1 cells, human PBMCs) (human, UniProt P24394 26-825)
T1 sequence (looked up): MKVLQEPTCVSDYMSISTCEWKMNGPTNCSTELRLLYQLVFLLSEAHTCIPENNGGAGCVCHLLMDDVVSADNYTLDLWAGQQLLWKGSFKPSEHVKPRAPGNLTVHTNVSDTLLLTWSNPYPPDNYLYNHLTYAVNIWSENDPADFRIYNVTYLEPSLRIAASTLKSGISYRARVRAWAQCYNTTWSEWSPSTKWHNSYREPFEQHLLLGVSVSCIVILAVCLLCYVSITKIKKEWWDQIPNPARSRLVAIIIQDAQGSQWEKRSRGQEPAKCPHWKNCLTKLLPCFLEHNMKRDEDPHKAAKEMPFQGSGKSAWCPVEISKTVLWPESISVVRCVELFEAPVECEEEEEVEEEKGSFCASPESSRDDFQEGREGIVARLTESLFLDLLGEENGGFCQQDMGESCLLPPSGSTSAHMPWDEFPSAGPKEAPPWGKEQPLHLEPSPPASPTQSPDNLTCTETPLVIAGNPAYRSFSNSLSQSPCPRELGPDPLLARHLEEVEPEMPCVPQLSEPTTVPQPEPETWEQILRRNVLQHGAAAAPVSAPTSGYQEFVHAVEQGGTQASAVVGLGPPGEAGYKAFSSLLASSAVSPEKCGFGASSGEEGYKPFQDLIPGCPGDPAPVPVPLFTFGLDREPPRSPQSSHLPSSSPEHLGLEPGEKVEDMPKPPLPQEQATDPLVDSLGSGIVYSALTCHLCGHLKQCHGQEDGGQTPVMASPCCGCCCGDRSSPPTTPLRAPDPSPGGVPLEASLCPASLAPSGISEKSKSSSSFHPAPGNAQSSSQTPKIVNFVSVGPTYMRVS
Assay: cell-based or functional assay
Numbers only, in nM.

| binder | readout-unit | measured-number |
| --- | --- | --- |
| L28F8-IgG4 (antibody, V domains shown, also called S1E6 light chain mutant L28F8) VH: EVQLVESGGGLVQPGGSLRLSCAVSGFTFSSYAMSWVRQAPGKGLEWVSSITGGGGGIYYADSVKGRFTISRDNSKNTVYLQMNSLRAEDTAVYYCAKDRISITIRPRYFGLDFWGQGTTVTVSS VL: DIVMTQSPLSLPVTPGEPASISCRSSQNVVYGNGYNYLDWYLQKSGQSPQLLIYLGTNVAAGVPDRFSGSGSGTDFTLKISRVEAEDVGFYYCMQSLQAPYTFGQGTKLEIKR | nM | 0.055 |

Would you mind giving IC50 values in inhibition of IL-4 (SEAP, HEK-Blue IL-4/IL-13 cells) for every binder in the list below?
1. L28G5-IgG4 (antibody, V domains shown, also called S1E6 light chain mutant L28G5) VH: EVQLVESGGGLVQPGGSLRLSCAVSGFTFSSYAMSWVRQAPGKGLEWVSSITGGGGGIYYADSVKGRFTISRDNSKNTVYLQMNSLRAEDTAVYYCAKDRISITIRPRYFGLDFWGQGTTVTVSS VL: DIVMTQSPLSLPVTPGEPASISCRSSRNVIYGNGYNYLDWYLQKSGQSPQLLIYLGNNVAAGVPDRFSGSGSGTDFTLKISRVEAEDVGFYYCMQSLQAPYTFGQGTKLEIKR
2. L28C9-IgG4 (antibody, V domains shown, also called S1E6 light chain mutant L28C9) VH: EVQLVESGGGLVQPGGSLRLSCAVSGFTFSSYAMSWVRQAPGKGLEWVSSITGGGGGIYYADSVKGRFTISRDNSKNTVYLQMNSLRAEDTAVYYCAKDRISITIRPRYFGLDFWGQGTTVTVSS VL: DIVMTQSPLSLPVTPGEPASISCRSSQNVVYGNGYNYLDWYLQKSGQSPQLLIYLGNNVAAGVPDRFSGSGSGTDFTLKISRVEAEDVGFYYCMQSLKAPYTFGQGTKLEIKR
3. L18D7-IgG4 (antibody, V domains shown, also called S1E6 light chain mutant L18D7) VH: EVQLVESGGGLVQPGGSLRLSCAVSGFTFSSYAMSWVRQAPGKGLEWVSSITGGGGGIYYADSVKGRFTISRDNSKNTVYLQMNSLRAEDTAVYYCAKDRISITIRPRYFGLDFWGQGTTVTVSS VL: DIVMTQSPLSLPVTPGEPASISCRSSQSLLYSIGYNYLDWYLQKSGQSPQLLIYLGSNRASGVPDRFSGSGSGTDFTLKISRVEAEDVGFYYCMQSFKAPYTFGQGTKLEIKR

[0.0484, 0.0494, 0.0484]
